# TARGET_OR_TEST_SYSTEM: Tubulin (Bos taurus, UniProt Q6B856+Q862L2+Q862F3)
# EXPERIMENTAL_DETAILS: Inhibition of bovine brain tubulin polymerization measured every 1 min for 60 mins by turbidimetry based microplate reader analysis
MEASUREMENT_NAME: IC50 (µM)
Report the figure in µM without appending any unit label.

In: Write down IC50 measured for item `COc1ccc2c(c1)CCc1n[nH]c(-c3cc(OC)c(OC)c(OC)c3)c1-2`
Out: 3.4

In: Return IC50 for the following compound: `COc1ccc2c(c1)CCc1nn(C)c(-c3cc(OC)c(OC)c(OC)c3)c1-2`
Out: 1.5

###

# TARGET_OR_TEST_SYSTEM: Tubulin (Bos taurus, UniProt Q6B856+Q862L2+Q862F3)
# EXPERIMENTAL_DETAILS: Inhibition of bovine brain tubulin polymerization measured every 1 min for 60 mins by turbidimetry based microplate reader analysis
# ASSAY_CONDITIONS: read-out: IC50
MEASUREMENT_NAME: IC50 (µM)
Dear colleague, please return just the value in µM, with no unit written.

In: # return recorded IC50 for input `COc1ccc(-c2[nH]nc3c2-c2cc(OC)c(OC)c(OC)c2CC3)cc1`
Out: 6.6

###

I'd appreciate it if you could supply IC50 values for the items below.
# TARGET_OR_TEST_SYSTEM: Tubulin (Bos taurus, UniProt Q6B856+Q862L2+Q862F3)
# EXPERIMENTAL_DETAILS: Inhibition of bovine brain tubulin polymerization measured every 1 min for 60 mins by turbidimetry based microplate reader analysis

In: # return recorded IC50 for entry `COc1ccc2c(c1)CCc1nn(CCO)c(-c3cc(OC)c(OC)c(OC)c3)c1-2`
Out: > 10 µM

In: For the molecule `COc1ccc2c(c1)CCc1nn(-c3ccccc3)c(-c3cc(OC)c(OC)c(OC)c3)c1-2` , give its reported IC50.
Out: > 10 µM

In: Give the value of IC50 reported for the following: `CCOC(=O)Cn1nc2c(c1-c1cc(OC)c(OC)c(OC)c1)-c1ccc(OC)cc1CC2`
Out: > 10 µM

From: ChEMBL document CHEMBL4346757
